Assay: inhibitors of mutant huntingtin aggregation, primary screen, imaging, exon1htt(103Q)mCFP cells, high-content imaging (AID 483);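 further: compound exposure lasted 3 days before fixation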
Settings: exon1htt(103Q)mCFP cell line, aggregate imaging, at 2 µM; hits give high values
List of inhibition of aggregation values.
State just the number; it will be interpreted in %.

// below: answered molecules
{"columns": ["Molecule", "inhibition of aggregation, %"],
 "data": [
  ["CC(=O)OCC(=O)[C@H]1CC[C@H]2[C@@H]3CC=C4C[C@@H](O)CC[C@]4(C)[C@H]3CC[C@]12C", 16.5],
  ["CCOC(=O)CNC(=O)Nc1ccccc1C(=O)OC", -5.8],
  ["CC(CCc1ccccc1)NCC(O)c1ccc(O)c(C(N)=O)c1 (stereo not given)", -15.6]
]}

Entry `CCCc1nc(N2CCOCC2)c(C#N)c2c1CCCC2` ; inhibition of aggregation = -8.4

Entry `CC(NC(=O)NCCCC(=O)O)(C(F)(F)F)C(F)(F)F` ; inhibition of aggregation = 8.7

Entry `Cn1c(=O)c2c(nc(NCc3ccc4c(c3)OCO4)n2Cc2ccccc2F)n(C)c1=O` ; inhibition of aggregation = 37.8

Entry `CCSc1nnc(NC(=O)C(CC)(C(F)(F)F)C(F)(F)F)s1` ; inhibition of aggregation = -6.4

Entry `CCN(CC)c1ncc(C)c(=O)[nH]1` ; inhibition of aggregation = -26.9

Entry `O=C(O)c1ccccc1S` ; inhibition of aggregation = 6.8

Entry Fc1ccc(C2C3=C(Nc4ncnn42)c2ccccc2OC3c2ccncc2)cc1 (stereo not given) ; inhibition of aggregation = 2.1

Entry `CCCCc1nc(NCCNC(=O)c2ccco2)c(C#N)c2c1CSC(C)(C)C2` ; inhibition of aggregation = -1

Entry `CCCCc1c(O)nc(SCCN(C)C)n(-c2ccccc2)c1=O` ; inhibition of aggregation = 2.2

Entry `CC(C)(C)OC(=O)N1CC=C2C(C#N)=C(N)C(C#N)(C#N)[C@H](c3cccnc3)[C@H]2C1` ; inhibition of aggregation = 45.1

Entry `Brc1c(NC2=NCCN2)ccc2nccnc12` ; inhibition of aggregation = -11.3

Entry CC1(C)CC(=O)C2=C(C1)N(CC1CCCO1)C(=O)C2(O)C(F)(F)F (stereo not given) ; inhibition of aggregation = -2.8

###

Experiment: inhibitors of Chlamydomonas gravitaxis, primary screen, whole organism, Chlamydomonas reinhardtii, WT vs cilia-less mutant, absorbance, 96-well (AID 463189);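 further: 0% = wild type cc124 cells in DMSO and 100% = ciliumless bld1 mutant cells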
Details: OD600 absorbance, 2 days, at 10 µM, hits give high values
List of inhibition values.
State just the number; it will be interpreted in %.

// below: answered compounds
{"columns": ["Compound", "Unit abbrev", "Observed"],
 "data": [
  ["CCOC(=O)c1c(C(F)(F)C(F)(F)C(F)(F)C(F)(F)F)n[nH]c1C", "%", 17.6],
  ["CCOP(=O)(c1ccccc1)C1(C#N)CCCC1 (stereo not drawn)", "%", 4.97]
]}

Now examine the next entry.
Entry `Cn1c(=O)c2c(nc(SCCN3CCCCC3)n2Cc2ccc(Cl)cc2)n(C)c1=O` ; inhibition = 104

###

Assay: inhibitors of mutant huntingtin aggregation, primary screen, imaging, exon1htt(103Q)mCFP cells, high-content imaging (AID 483);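 further: compound exposure lasted 3 days before fixation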
Details: exon1htt(103Q)mCFP cell line, aggregate imaging, at 2 µM; hits give high values
Activity calls are given as the source filed them.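 How the source made its calls: active means visual image review flags a hit and inhibition of aggregation exceeds 20%; inconclusive means visual hit but inhibition at or below 20%; inactive means no hit on visual image review.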
Measurement type: inhibition of aggregation

// below: answered compounds
{"columns": ["Mol smiles", "Measurement type", "Observed"],
 "data": [
  ["O=C(NCc1cccnc1)c1ccc(=O)oc1", "inhibition of aggregation", "-18.7% (inactive)"],
  ["O=C(NCCO)c1cccc2c1C(=O)c1ccccc1-2", "inhibition of aggregation", "9.3% (inactive)"],
  ["C[C@]12CC[C@@H]3c4ccc(O)cc4CC[C@H]3[C@@H]1CC[C@@H]2OC(=O)CCC(=O)O", "inhibition of aggregation", "-1.9% (inactive)"],
  ["CCOC(=O)C1=C[C@]2(CC)CCCN3CCc4c(n1c1ccccc41)[C@@H]32", "inhibition of aggregation", "15.2% (inactive)"],
  ["CCCSc1ccc2nc(NC(=O)OC)[nH]c2c1", "inhibition of aggregation", "-22.3% (inactive)"],
  ["Cc1nc2sccn2c(=O)c1CCN1CCC(=C(c2ccccc2)c2ccc(F)cc2)CC1", "inhibition of aggregation", "5% (inactive)"]
]}

Now examine the next entry.
Entry `CN(C)CCOc1ccccc1Cc1ccccc1` ; inhibition of aggregation = -17.6% (inactive)
